# Tested on: NCI/ADR-RES ovarian
# ASSAY REMARKS: NCI tumour cell line growth inhibition, 48 h
READOUT NAME: TGI

Field: example entries. Status: answers known.
>  <MOLECULE>
CC[C@@]1(O)C(=O)OCc2c1cc1n(c2=O)Cc2c-1nc1ccccc1c2CC[Si](C)(C)C

>  <TGI>
> 100 µM

$$$$
>  <MOLECULE>
CC(=O)/C=C/C1=C(c2cc3ccccc3s2)c2ccccc2CC1

>  <TGI>
> 100 µM

$$$$
>  <MOLECULE>
COc1ccc(O)c(C(=O)c2ccc(C(=O)O[C@@H]3CCCNC[C@H]3NC(=O)c3ccncc3)cc2)c1F

>  <TGI>
24.2 µM

$$$$
>  <MOLECULE>
CCOP(=O)(/C=C\n1cnc2c(=O)n(C(C)=O)c(N)nc21)OCC

>  <TGI>
> 100 µM

$$$$
>  <MOLECULE>
CCC1CC2CN3CCc4c([nH]c5c(-c6c(OC)ccc7c8c([nH]c67)[C@]6(C(=O)OC)CC7CC(CC)C6N(CC8)C7)c(O)ccc45)[C@](C(=O)OC)(C2)C13 (some centres undefined)

>  <TGI>
53.9 µM

$$$$

IN: Return reported TGI; argument: NC1CC(=O)c2csc(Br)c21 (centres undefined)
OUT: 44.4 µM

IN: Return reported TGI; argument: O=C1OC(c2ccc(O)c(-c3ccccc3)c2)(c2ccc(O)c(-c3ccccc3)c2)c2c(Cl)c(Cl)c(Cl)c(Cl)c21
OUT: > 100 µM

IN: Return reported TGI; argument: O=C(O)C1C2CC3C(OC(=O)C31)C2Br (centres undefined)
OUT: > 100 µM

IN: Return reported TGI; argument: CC(=O)Nc1ccc(CNc2cc(=O)[nH]c(=O)[nH]2)cc1
OUT: > 100 µM

----------
TGI reference
# System: NCI/ADR-RES ovarian
# ASSAY REMARKS: NCI tumour cell line growth inhibition, 48 h

>  <COMPOUND>
Nc1cc(-c2ccccc2)ccc1O

>  <TGI>
> 100 µM

$$$$
>  <COMPOUND>
COc1ccc(/C=C2\CSC/C(=C\c3ccc(OC)c(OC)c3OC)C2=O)c(OC)c1OC

>  <TGI>
> 100 µM

$$$$
>  <COMPOUND>
Cc1csc2nc(-c3ccc([N+](=O)[O-])cc3)c(/C=N/N=C(N)N)n12

>  <TGI>
> 50.8 µM

$$$$
>  <COMPOUND>
Cc1cc(N(CCC#N)CCC#N)ccc1/C(N=Nc1cccc([N+](=O)[O-])c1)=N/NC(=O)c1cc(Cl)ccc1O

>  <TGI>
> 100 µM

$$$$
>  <COMPOUND>
COC(CCP(=O)(c1ccccc1)c1ccccc1)(C(=O)c1ccccc1)c1ccccc1 (stereo not given)

>  <TGI>
20.9 µM

$$$$

IN: Query the reported TGI for NCI/ADR-RES ovarian; item: COc1cccc2cc(C(N)=O)c(=N)oc12
OUT: > 100 µM

----------
TGI reference
# Tested on: UACC-257 melanoma
# ASSAY REMARKS: NCI tumour cell line growth inhibition, 48 h
Numbers only; they are read as µM.

Field: example entries. Status: answers known.
>  <COMPOUND STRUCTURE STRING>
Cn1c(COC(=O)N2CCCCC2)nc2c(N3CCOCC3)nc(-c3ccccc3)nc21

>  <READOUT NAME>
TGI

>  <EXPERIMENTAL VALUE>
2.67

$$$$
>  <COMPOUND STRUCTURE STRING>
ClCCN(CCCl)c1ccc(-n2cnc3c(Cl)ncnc32)cc1

>  <READOUT NAME>
TGI

>  <EXPERIMENTAL VALUE>
5.16

$$$$

# next molecule below
IN: Return reported TGI; argument: CCCN(CCC)c1ccc(CO)c(C)c1
OUT: 67.3

Where do these numbers come from? They come from PubChem BioAssay (NCI).
